Can you tell me logP for the items I'm about to list?
Assay: Octanol-water partition coefficient, log P of the compound
Format: physicochemical
Number only, no unit.

Given the entry CC1(c2ccco2)ON=C(c2ccc3c(c2)OCO3)O1 (configuration not stated) , report its measured logP.
2.99

Endpoint output: logP of c1ccc(C2=NOC(c3ccc4c(c3)OCO4)O2)nc1 (configuration not stated) . Value?
1.8

Suppose we examine the molecule CC(C)=CCC/C(C)=C/C1=NOC(c2ccc3c(c2)OCO3)O1 (configuration not stated) ; what logP value has been reported?
5.31

Value lookup for logP; key = CC(C)=CCC/C(C)=C/C1=NOC(c2ccco2)O1 (configuration not stated)
4.61

Param item = CC(C)=CCC/C(C)=C/C1ON=C(c2ccc3c(c2)OCO3)O1 (configuration not stated) ; retrieve measured logP.
5.44

# get_value(readout='logP', item= CC(C)=CCC/C(C)=C/C1=NOC(C)(c2ccccn2)O1 (configuration not stated) )
4.5

Which value of logP has been reported for c1coc(C2ON=C(c3ccc4c(c3)OCO4)O2)c1 (configuration not stated) in the records?
2.45

May I ask what logP has been recorded for c1csc(C2=NOC(c3ccc4c(c3)OCO4)O2)c1 (configuration not stated) ?
2.45

Item under review: c1ccc(C2ON=C(c3ccc4c(c3)OCO4)O2)nc1 (configuration not stated) . Reported logP?
1.8

Tell me the measured logP of c1coc(C2=NOC(c3ccc4c(c3)OCO4)O2)c1 (configuration not stated) , please.
2.97

Sample CC1(c2ccccn2)ON=C(c2ccc3c(c2)OCO3)O1 (configuration not stated) — what was its logP?
2.34

Which logP value belongs to CC(C)=CCC/C(C)=C/C1ON=C(c2ccccn2)O1 (configuration not stated) ?
4.08

###

Assay: Selectivity index, ratio of IC50 for rat H9c2 cells to IC50 for Entamoeba histolytica HM-1:IMSS
MEASURED PROPERTY: Ratio IC50

What value of Ratio IC50 has been recorded for this entry: CC1(c2ccccn2)ON=C(c2ccc3c(c2)OCO3)O1 (configuration not stated)
>200

Which value of Ratio IC50 has been reported for c1coc(C2ON=C(c3ccc4c(c3)OCO4)O2)c1 (configuration not stated) in the records?
>183.48

Could you tell me which Ratio IC50 is on file for c1ccc(C2ON=C(c3ccc4c(c3)OCO4)O2)nc1 (configuration not stated) ?
38.83

Look at this molecule and give its reported Ratio IC50. CC1(c2ccco2)ON=C(c2ccc3c(c2)OCO3)O1 (configuration not stated)
>181.81

For the molecule Cc1ncc([N+](=O)[O-])n1CCO , what Ratio IC50 is on record?
>137.9

So what does the record say about Ratio IC50 for c1coc(C2=NOC(c3ccc4c(c3)OCO4)O2)c1 (configuration not stated) ?
190.47

Entry c1ccc(C2=NOC(c3ccc4c(c3)OCO4)O2)nc1 (configuration not stated) : reported Ratio IC50 = ?
>80.18

###

Test system: H9c2
Test: Cytotoxicity against rat H9c2 cells assessed as cell viability at 50 uM after 48 hrs by MTT assay
Format: cell-based
Conditions: h9c2, 48 h
MEASURED PROPERTY: Activity

The examples below pair each entry with its known result.
c1coc(C2=NOC(c3ccc4c(c3)OCO4)O2)c1 (configuration not stated); Toxic
Cc1ncc([N+](=O)[O-])n1CCO [METRONIDAZOLE]; Toxic
CC1(c2ccccn2)ON=C(c2ccc3c(c2)OCO3)O1 (configuration not stated); Toxic
c1ccc(C2ON=C(c3ccc4c(c3)OCO4)O2)nc1 (configuration not stated); Toxic

What value of Activity has been recorded for this entry: c1ccc(C2=NOC(c3ccc4c(c3)OCO4)O2)nc1 (configuration not stated)
Toxic

Quick one: Activity of CC1(c2ccco2)ON=C(c2ccc3c(c2)OCO3)O1 (configuration not stated) ?
Toxic

Item under review: c1coc(C2ON=C(c3ccc4c(c3)OCO4)O2)c1 (configuration not stated) . Reported Activity?
Toxic
